# study_system: PD-1 (Homo sapiens (Human)) (UniProt Q15116)
# Sequence (Q15116 21-288 limits assumed): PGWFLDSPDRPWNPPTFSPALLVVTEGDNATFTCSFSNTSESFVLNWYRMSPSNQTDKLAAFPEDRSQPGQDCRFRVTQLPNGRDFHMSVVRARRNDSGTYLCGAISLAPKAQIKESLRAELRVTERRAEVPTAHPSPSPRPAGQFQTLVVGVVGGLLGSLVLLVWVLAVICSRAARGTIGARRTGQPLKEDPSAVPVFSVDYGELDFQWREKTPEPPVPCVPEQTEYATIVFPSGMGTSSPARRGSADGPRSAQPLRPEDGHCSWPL
# assay_name: flow cytometry, Jurkat/PD-1 cells; vs wildtype PD-L2 IgV-Fc
Measured Fold increase over wildtype PD-L2 IgV-Fc by item
# value in fold; strip the unit string

1. variant PD-L2 IgV-Fc I13V, H15Q, T47A, H69L, R76G, V89D (Fc fusion, not shown: a dimerising Fc or GST; small tags and cut ends) FTVTVPKELYIVEQGSNVTLECNFDTGSHVNLGAITASLQKVENDASPHRERATLLEEQLPLGKASFLIPQVQVGDEGQYQCIIIYGDAWDYKYLTLK : 5.52
2. variant PD-L2 IgV-Fc H15Q, S39I, S67L, V89D (Fc fusion, not shown: a dimerising Fc or GST; small tags and cut ends) LFTVTVPKELYIIEQGSNVTLECNFDTGSHVNLGAITAILQKVENDTSPHRERATLLEEQLPLGKALFHIPQVQVRDEGQYQCIIIYGDAWDYKYLTLK : 4.62
3. variant PD-L2 IgV-Fc S67L, V89D (Fc fusion, not shown: a dimerising Fc or GST; small tags and cut ends) LFTVTVPKELYIIEHGSNVTLECNFDTGSHVNLGAITASLQKVENDTSPHRERATLLEEQLPLGKALFHIPQVQVRDEGQYQCIIIYGDAWDYKYLTLK : 1.62

Now for a further binder.
Entry variant PD-L2 IgV-Fc H15Q (Fc fusion, not shown: a dimerising Fc or GST; small tags and cut ends) FTVTVPKELYIIEQGSNVTLECNFDTGSHVNLGAITASLQKVENDTSPHRERATLLEEQLPLGKASFHIPQVQVRDEGQYQCIIIYGVAWDYKYLTLK has what Fold increase over wildtype PD-L2 IgV-Fc?
1.63
